Target: Sodium channel protein type 5 subunit alpha (Homo sapiens)
Sequence (Q14524 whole entry): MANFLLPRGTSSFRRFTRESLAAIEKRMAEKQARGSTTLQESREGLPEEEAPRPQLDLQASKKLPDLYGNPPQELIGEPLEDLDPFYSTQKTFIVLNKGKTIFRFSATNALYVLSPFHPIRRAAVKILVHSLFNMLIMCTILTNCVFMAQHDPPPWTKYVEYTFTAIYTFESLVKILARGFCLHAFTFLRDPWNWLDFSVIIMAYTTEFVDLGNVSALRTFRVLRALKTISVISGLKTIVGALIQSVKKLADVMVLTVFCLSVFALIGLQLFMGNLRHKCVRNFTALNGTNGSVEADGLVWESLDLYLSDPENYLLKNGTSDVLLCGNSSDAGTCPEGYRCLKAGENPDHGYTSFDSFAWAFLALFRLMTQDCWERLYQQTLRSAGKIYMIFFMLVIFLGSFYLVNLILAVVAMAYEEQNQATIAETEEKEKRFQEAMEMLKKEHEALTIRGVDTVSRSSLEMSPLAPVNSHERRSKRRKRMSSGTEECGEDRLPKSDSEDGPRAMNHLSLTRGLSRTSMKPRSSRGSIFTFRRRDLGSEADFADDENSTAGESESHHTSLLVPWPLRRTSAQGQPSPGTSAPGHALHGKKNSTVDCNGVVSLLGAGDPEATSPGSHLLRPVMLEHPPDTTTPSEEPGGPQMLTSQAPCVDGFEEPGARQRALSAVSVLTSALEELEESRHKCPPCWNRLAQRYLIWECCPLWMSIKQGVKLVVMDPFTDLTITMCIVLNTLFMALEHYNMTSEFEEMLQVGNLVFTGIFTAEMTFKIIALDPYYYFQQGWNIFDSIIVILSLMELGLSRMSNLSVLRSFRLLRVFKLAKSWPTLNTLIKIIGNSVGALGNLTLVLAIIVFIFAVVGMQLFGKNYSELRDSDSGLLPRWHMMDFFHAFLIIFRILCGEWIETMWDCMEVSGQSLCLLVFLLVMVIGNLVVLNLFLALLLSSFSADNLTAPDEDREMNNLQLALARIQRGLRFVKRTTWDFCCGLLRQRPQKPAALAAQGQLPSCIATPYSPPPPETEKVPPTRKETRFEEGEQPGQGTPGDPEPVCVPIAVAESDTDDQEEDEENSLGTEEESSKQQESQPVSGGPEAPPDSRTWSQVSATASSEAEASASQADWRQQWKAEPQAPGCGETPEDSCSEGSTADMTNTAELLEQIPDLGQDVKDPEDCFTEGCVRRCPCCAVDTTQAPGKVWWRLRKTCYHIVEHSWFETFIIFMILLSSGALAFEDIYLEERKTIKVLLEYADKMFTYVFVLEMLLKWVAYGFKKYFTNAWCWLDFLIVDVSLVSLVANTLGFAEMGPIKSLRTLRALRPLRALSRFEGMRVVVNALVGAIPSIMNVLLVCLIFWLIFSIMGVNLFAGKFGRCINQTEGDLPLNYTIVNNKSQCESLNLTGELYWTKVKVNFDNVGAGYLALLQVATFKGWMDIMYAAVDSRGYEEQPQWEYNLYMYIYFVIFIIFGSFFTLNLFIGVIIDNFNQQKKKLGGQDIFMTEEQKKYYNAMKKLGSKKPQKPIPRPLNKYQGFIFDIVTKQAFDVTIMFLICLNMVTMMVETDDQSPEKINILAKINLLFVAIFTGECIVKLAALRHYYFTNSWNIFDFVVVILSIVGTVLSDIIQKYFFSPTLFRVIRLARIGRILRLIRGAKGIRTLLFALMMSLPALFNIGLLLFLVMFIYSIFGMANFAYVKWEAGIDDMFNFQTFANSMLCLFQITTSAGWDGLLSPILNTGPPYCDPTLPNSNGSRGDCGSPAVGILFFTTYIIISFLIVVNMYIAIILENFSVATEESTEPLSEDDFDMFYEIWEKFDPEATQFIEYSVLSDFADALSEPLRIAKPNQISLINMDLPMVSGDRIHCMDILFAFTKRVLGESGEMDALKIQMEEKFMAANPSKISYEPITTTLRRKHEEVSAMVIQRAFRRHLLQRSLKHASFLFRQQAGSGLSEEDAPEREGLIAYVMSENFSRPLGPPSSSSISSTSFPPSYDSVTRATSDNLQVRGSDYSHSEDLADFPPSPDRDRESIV
Assay: Inhibition of human Nav1.5 expressed in HEK cells by automated patchXpress electrophysiology method
Type: ADME, cell-based
pIC50: −log10 of the molar value.
Reported pIC50 values for a set of compounds

# smiles.structure, pIC50
measured = [
    ("N#Cc1cc(S(=O)(=O)Nc2ncns2)ccc1Oc1ccc(-c2cccc(C(F)(F)F)c2)cc1-c1ccnc(CNCCC2CCNCC2)c1", "5.59 to 5.70"),
]

Now consider the entry below.
QUERY: Fill in pIC50 for record COCCOCCOCCOCCOCCOCCOCCOCCOCCOCCOCCOCCC(=O)N1CCC(CCNCc2cc(-c3cc(-c4cccc(C(F)(F)F)c4)ccc3Oc3ccc(S(=O)(=O)Nc4ncns4)cc3C#N)ccn2)CC1
RESULT: < 5.52

* * *

Target: 5-hydroxytryptamine receptor 1B (Homo sapiens, UniProt P28222)
Sequence (P28222 whole entry): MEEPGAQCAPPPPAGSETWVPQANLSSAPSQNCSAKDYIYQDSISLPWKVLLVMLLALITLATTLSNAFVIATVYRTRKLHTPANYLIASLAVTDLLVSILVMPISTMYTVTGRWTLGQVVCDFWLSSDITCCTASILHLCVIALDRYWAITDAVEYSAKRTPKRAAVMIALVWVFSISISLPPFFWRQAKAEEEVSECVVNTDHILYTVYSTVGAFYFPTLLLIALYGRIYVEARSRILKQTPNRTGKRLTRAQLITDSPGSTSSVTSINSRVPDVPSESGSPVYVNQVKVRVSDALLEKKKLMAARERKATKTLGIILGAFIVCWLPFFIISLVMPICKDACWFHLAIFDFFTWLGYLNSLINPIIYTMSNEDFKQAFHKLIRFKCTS
Test: Agonist activity at human 5-HT1B receptor expressed in HeLa cells assessed as increase in cAMP accumulation measured after 20 mins by HTRF method
Assay type: functional, cell-based
quantity.kind: EC50

QUERY: Given N#Cc1cc(S(=O)(=O)Nc2ncns2)ccc1Oc1ccc(-c2cccc(C(F)(F)F)c2)cc1-c1ccnc(CNCCC2CCNCC2)c1 , respond with its EC50.
RESULT: > 10 µM

* * *

Experiment: Protein binding in non-human primate plasma assessed as fraction unbound at 2 uM
Type: ADME, cell-free, Macaca mulatta
Details: rhesus monkey
quantity.kind: fraction unbound at 2 µM

QUERY: Answer with reported fraction unbound at 2 µM of N#Cc1cc(S(=O)(=O)Nc2ncns2)ccc1Oc1ccc(-c2cccc(C(F)(F)F)c2)cc1-c1ccnc(CNCCC2CCNCC2)c1
RESULT: 0.001

* * *

Molecular target: Sodium channel protein type 8 subunit alpha (Rattus norvegicus, UniProt O88420)
Test: Inhibition of rat Nav1.6 expressed in HEK cells by patch clamp electrophysiology method
quantity.kind: IC50 (nM)
# value in nM; strip the unit string

QUERY: Retrieve IC50 measured for N#Cc1cc(S(=O)(=O)Nc2ncns2)ccc1Oc1ccc(-c2cccc(C(F)(F)F)c2)cc1-c1ccnc(CNCCC2CCNCC2)c1 and print it.
RESULT: 5.01

* * *

Test: Volume of distribution at steady state in iv dosed mouse
Type: ADME, organism-based
Conditions: in vivo, read-out: Vdss
quantity.kind: Vd (L/kg)
Give just the numeric value; L/kg need not be written.

QUERY: Please report the measured Vd for N#Cc1cc(S(=O)(=O)Nc2ncns2)ccc1Oc1ccc(-c2cccc(C(F)(F)F)c2)cc1-c1ccnc(CNCCC2CCNCC2)c1
RESULT: 0.54

* * *

Test: Protein binding in dog plasma assessed as fraction unbound
Type: ADME, cell-free, Canis lupus familiaris
quantity.kind: fraction unbound
Number only, please.

QUERY: Please list fraction unbound recorded for the compound N#Cc1cc(S(=O)(=O)Nc2ncns2)ccc1Oc1ccc(-c2cccc(C(F)(F)F)c2)cc1-c1ccnc(CNCCC2CCNCC2)c1
RESULT: 0.00374

* * *

Molecular target: Sodium-dependent noradrenaline transporter (Homo sapiens, UniProt P23975)
Sequence (P23975 whole entry): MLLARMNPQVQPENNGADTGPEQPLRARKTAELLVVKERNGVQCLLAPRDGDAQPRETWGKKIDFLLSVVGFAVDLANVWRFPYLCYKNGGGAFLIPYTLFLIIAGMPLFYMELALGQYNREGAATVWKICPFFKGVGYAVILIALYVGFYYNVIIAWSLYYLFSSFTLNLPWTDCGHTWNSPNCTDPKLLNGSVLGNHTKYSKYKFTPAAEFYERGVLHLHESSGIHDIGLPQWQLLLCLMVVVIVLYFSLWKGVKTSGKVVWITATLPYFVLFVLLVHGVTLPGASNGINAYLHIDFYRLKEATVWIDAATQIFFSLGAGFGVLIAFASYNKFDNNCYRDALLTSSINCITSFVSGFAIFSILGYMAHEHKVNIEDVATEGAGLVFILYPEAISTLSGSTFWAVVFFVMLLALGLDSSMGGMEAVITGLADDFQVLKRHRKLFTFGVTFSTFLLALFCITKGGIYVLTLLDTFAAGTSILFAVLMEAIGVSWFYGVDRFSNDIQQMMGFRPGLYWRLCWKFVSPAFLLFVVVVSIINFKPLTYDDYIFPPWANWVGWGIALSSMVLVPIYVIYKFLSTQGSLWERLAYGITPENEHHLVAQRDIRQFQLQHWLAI
Assay: Displacement of [3H]nisoxetine from recombinant human norepinephrine transporter after 120 min by scintillation counting method
quantity.kind: Ki (µM)
Field format: number, assumed µM, no unit text.

QUERY: Specify Ki for N#Cc1cc(S(=O)(=O)Nc2ncns2)ccc1Oc1ccc(-c2cccc(C(F)(F)F)c2)cc1-c1ccnc(CNCCC2CCNCC2)c1 and stop.
RESULT: 3.16

* * *

Target: Sodium channel protein type 10 subunit alpha (Homo sapiens)
Sequence (Q9Y5Y9 whole entry): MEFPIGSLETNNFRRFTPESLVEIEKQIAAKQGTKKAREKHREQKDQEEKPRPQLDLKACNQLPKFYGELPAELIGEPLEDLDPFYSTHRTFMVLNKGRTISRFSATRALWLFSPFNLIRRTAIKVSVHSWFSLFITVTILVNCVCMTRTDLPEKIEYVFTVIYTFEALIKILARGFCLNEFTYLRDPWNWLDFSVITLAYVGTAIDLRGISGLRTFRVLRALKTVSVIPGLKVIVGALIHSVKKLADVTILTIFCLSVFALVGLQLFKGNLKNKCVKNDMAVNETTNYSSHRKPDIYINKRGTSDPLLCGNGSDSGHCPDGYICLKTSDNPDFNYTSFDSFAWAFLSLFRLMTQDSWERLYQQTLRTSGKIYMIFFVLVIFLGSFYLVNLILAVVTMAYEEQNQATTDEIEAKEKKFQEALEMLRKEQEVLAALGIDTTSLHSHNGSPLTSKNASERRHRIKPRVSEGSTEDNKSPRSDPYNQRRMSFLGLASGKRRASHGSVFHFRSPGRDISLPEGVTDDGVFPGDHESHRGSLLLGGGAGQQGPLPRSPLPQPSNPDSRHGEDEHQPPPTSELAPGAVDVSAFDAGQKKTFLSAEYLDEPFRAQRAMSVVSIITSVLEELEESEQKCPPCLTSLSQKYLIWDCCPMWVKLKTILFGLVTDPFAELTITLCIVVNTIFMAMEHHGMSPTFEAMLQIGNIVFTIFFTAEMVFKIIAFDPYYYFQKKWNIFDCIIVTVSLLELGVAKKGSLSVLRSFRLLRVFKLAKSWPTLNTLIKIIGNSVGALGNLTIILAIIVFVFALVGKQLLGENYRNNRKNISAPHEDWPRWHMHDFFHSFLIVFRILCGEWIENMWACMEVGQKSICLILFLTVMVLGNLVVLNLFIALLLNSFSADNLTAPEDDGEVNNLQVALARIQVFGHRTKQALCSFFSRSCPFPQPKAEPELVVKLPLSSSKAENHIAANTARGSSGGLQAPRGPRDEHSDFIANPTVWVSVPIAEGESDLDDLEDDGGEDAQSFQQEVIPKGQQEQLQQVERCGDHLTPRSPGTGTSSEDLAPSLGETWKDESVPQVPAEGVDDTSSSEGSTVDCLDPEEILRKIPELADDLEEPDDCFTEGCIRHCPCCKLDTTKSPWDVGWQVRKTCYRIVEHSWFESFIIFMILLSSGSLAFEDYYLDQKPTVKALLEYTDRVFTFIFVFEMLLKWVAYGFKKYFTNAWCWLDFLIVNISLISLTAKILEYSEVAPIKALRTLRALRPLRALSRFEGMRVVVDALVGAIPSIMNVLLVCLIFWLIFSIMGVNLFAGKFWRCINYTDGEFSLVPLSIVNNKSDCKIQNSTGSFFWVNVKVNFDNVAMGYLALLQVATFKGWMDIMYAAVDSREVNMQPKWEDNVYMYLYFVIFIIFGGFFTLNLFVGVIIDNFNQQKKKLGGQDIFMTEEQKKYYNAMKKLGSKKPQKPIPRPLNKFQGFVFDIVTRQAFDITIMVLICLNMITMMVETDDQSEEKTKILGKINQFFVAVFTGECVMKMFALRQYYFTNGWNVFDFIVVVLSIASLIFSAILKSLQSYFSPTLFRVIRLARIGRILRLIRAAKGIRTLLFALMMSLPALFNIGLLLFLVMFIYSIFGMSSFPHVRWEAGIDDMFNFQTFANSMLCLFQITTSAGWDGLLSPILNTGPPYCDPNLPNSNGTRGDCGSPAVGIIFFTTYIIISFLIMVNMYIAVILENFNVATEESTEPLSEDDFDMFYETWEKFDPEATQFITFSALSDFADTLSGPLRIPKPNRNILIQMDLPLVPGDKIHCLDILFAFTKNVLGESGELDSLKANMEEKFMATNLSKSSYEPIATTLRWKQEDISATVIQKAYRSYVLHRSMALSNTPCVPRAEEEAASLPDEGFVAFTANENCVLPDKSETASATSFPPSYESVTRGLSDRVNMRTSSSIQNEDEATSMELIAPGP
Test: Inhibition of human Nav1.8 expressed in HEK cells by automated patchXpress electrophysiology method
quantity.kind: IC50

QUERY: Return the recorded IC50 value; entry: N#Cc1cc(S(=O)(=O)Nc2ncns2)ccc1Oc1ccc(-c2cccc(C(F)(F)F)c2)cc1-c1ccnc(CNCCC2CCNCC2)c1
RESULT: 10 to 26 µM

* * *

Experiment: Solubility of the compound in aqueous buffer at pH 7.2
Format: physicochemical
quantity.kind: solubility

QUERY: Return the recorded solubility value; entry: NCc1cc(-c2cc(-c3cccc(C(F)(F)F)c3)ccc2Oc2cc(F)c(S(=O)(=O)Nc3nncs3)cc2Cl)ccn1
RESULT: < 0.5 µg/mL

* * *

Experiment: Protein binding in rat plasma assessed as fraction unbound at 2 uM
Format: ADME, cell-free
quantity.kind: fraction unbound at 2 µM

QUERY: Name the recorded fraction unbound at 2 µM of the item N#Cc1cc(S(=O)(=O)Nc2ncns2)ccc1Oc1ccc(-c2cccc(C(F)(F)F)c2)cc1-c1ccnc(CNCCC2CCNCC2)c1 in your answer.
RESULT: 0.002

* * *

Assay: Renal clearance in rat at 0.3 mg/kg, iv via infusion for 1 hr
Format: ADME, organism-based, Kidney
Conditions: in vivo
quantity.kind: CL renal at 1 h
For clarity, give the value followed by its unit.

QUERY: Name the recorded CL renal at 1 h of the molecule listed here: N#Cc1cc(S(=O)(=O)Nc2ncns2)ccc1Oc1ccc(-c2cccc(C(F)(F)F)c2)cc1-c1ccnc(CNCCC2CCNCC2)c1
RESULT: 1.93 mL/h/kg

* * *

Experiment: Terminal half-life in dog at 0.3 mg/kg, iv via infusion for 0.5 hrs
Type: ADME, organism-based, Canis lupus familiaris
Conditions: in vivo, read-out: beta t1/2 (converted)
quantity.kind: half-life

QUERY: Specify measured half-life for N#Cc1cc(S(=O)(=O)Nc2ncns2)ccc1Oc1ccc(-c2cccc(C(F)(F)F)c2)cc1-c1ccnc(CNCCC2CCNCC2)c1 .
RESULT: 5.9 h

* * *

Assay: Volume of distribution at steady state in dog at 0.3 mg/kg, iv via infusion for 0.5 hrs
Assay type: ADME, organism-based, Canis lupus familiaris
Settings: in vivo, read-out: Vdss
quantity.kind: Vd (L/kg)
Value expressed in L/kg; do not type the unit.

QUERY: In one line, give reported Vd of the entry N#Cc1cc(S(=O)(=O)Nc2ncns2)ccc1Oc1ccc(-c2cccc(C(F)(F)F)c2)cc1-c1ccnc(CNCCC2CCNCC2)c1 .
RESULT: 0.46

* * *

Assay: Intrinsic clearance in human liver microsomes
Assay type: ADME, microsome
Conditions: read-out: CLH
quantity.kind: microsomal CLint

QUERY: Specify microsomal CLint for N#Cc1cc(S(=O)(=O)Nc2ncns2)ccc1Oc1ccc(-c2cccc(C(F)(F)F)c2)cc1-c1ccnc(CNCCC2CCNCC2)c1 and stop.
RESULT: < 8 µL/min/mg

* * *

Target: UniProt Q01959
Assay: Displacement of [3H]BTCP from recombinant human dopamine transporter after 120 mins by scintillation counting method
quantity.kind: pIC50
pIC50 here is simply -log10 of the concentration when that concentration is written in mol/L.

QUERY: Check UniProt Q01959 data and give pIC50 for N#Cc1cc(S(=O)(=O)Nc2ncns2)ccc1Oc1ccc(-c2cccc(C(F)(F)F)c2)cc1-c1ccnc(CNCCC2CCNCC2)c1 .
RESULT: 5.40

* * *

Assay: Lipophilicity, log D of the compound at pH 7.4
Format: physicochemical
Conditions: buffer
quantity.kind: logD

QUERY: Tell me measured logD for N#Cc1cc(S(=O)(=O)Nc2ncns2)ccc1Oc1ccc(-c2cccc(C(F)(F)F)c2)cc1-c1ccnc(CNCCC2CCNCC2)c1 please.
RESULT: 2.37 to 2.4

* * *

Assay: Permeability in RRCK cells
Format: ADME, cell-based, Canis lupus familiaris, MDCKII-LE
Settings: dog, MDCK; read-out: permeability
quantity.kind: Papp (×10⁻⁶ cm/s)
Could you give me the number in ×10⁻⁶ cm/s? Just the number is fine.

QUERY: Determine its reported Papp: N#Cc1cc(S(=O)(=O)Nc2ncns2)ccc1Oc1ccc(-c2cccc(C(F)(F)F)c2)cc1-c1ccnc(CNCCC2CCNCC2)c1
RESULT: 0.62

* * *

Assay: Clearance in rat plasma at 0.3 mg/kg, iv via infusion for 1 hr
Assay type: ADME, organism-based
quantity.kind: clearance (mL/min/kg)
Express it in mL/min/kg; write the number only.

QUERY: Please give the documented clearance of N#Cc1cc(S(=O)(=O)Nc2ncns2)ccc1Oc1ccc(-c2cccc(C(F)(F)F)c2)cc1-c1ccnc(CNCCC2CCNCC2)c1
RESULT: 83.1

* * *

Test: Clearance in dog blood at 0.3 mg/kg, iv via infusion for 0.5 hrs
Format: ADME, organism-based, Canis lupus familiaris
Details: whole blood
quantity.kind: clearance (mL/min/kg)
Report as a plain number; the unit mL/min/kg is understood.

QUERY: // fetch clearance given entry N#Cc1cc(S(=O)(=O)Nc2ncns2)ccc1Oc1ccc(-c2cccc(C(F)(F)F)c2)cc1-c1ccnc(CNCCC2CCNCC2)c1
RESULT: 39.8

* * *

Assay: Protein binding in human plasma assessed as fraction unbound
Assay type: ADME, cell-free
quantity.kind: fraction unbound
// no unit, no text: just the number

QUERY: Consider the compound N#Cc1cc(S(=O)(=O)Nc2ncns2)ccc1Oc1ccc(-c2cccc(C(F)(F)F)c2)cc1-c1ccnc(CNCCC2CCNCC2)c1 . State its measured fraction unbound.
RESULT: 0.00497

* * *

Biological target: Sodium channel protein type 3 subunit alpha (Homo sapiens, UniProt Q9NY46)
Assay: Inhibition of human Nav1.3 expressed in HEK cells by patch clamp electrophysiology method
pIC50: −log10 of the molar value.
quantity.kind: pIC50

QUERY: Look up and report measured pIC50 (Sodium channel protein type 3 subunit alpha (Homo sapiens, UniProt Q9NY46)) for the following molecule: N#Cc1cc(S(=O)(=O)Nc2ncns2)ccc1Oc1ccc(-c2cccc(C(F)(F)F)c2)cc1-c1ccnc(CNCCC2CCNCC2)c1
RESULT: 4.94 to 5.19
